// data source = PubChem BioAssay (NCATS)

- experimentalProtocol: Quantitative High-Throughput drug screen in 47 multiple myeloma cell lines against the NCATS MIPE library collection: XG6_PLB cell viability assay (AID 1919865); also: nearly all actives have a fitted effect of over 40% in size
- testConditions: XG6 myeloma viability, CellTiter-Glo ATP luminescence, 48 h; series mostly up to 45.8 µM
Results filed as inconclusive are left out. Active and inactive are the calls of the source. Calls follow the shape of the dose curve; as a rule, active = well fitted cell-killing curve with a large enough effect; inconclusive = small, poorly fitted or top-dose-only effect, or effect the other way; inactive = no such curve, though single readings can be large or run the other way.
Classes used: T for active, F for inactive

# molecule, classAssignment
measured = [
    ("COc1cc2nc(N3CCN(C(=O)C4COc5ccccc5O4)CC3)nc(N)c2cc1OC (stereo unspecified)", "T"),
    ("Clc1ccc2nsnc2c1NC1=NCCN1", "F"),
    ("Cc1cc(C(C)(C)C)c(O)c(C)c1CC1=NCCN1", "F"),
    ("O=C(C1CCCCC1)N1CC(=O)N2CCc3ccccc3C2C1 (stereo unspecified)", "T"),
    ("Nc1nnc(-c2cccc(Cl)c2Cl)c(N)n1", "T"),
    ("Cn1cnc2c1c(=O)[nH]c(=O)n2C", "T"),
]

* * *

- experimentalProtocol: Drug repurposing screens with cells derived from glioblastoma tumor samples (AID 1345199); also: % is scaled to controls: 0 for no effect and ±100 for the full control effect; nearly all actives have a fitted effect of over 40% in size
- testConditions: GBM patient neurospheres viability, ATP luminescence, 48 h; at 21.2 µM (top of the series); tumour line B
Results filed as inconclusive are left out. Activity calls are given as the source filed them. Calls follow the shape of the dose curve; as a rule, active = well fitted inhibition curve with a large enough effect; inconclusive = small, poorly fitted or top-dose-only effect; inactive = flat fitted curve, though single readings scatter.

# molecule, activity, negative = cell killing
data = [
    ("COc1nc(C)nc(Cl)c1NC1=NCCN1", "-2.98% (inactive)"),
    ("CS(=O)(=O)Nc1ccc([N+](=O)[O-])cc1Oc1ccccc1", "-19.6% (inactive)"),
    ("Nc1nc2c(ncn2COC(CO)CO)c(=O)[nH]1", "-13.7% (inactive)"),
    ("Cc1cc(C(C)(C)C)cc(C)c1CC1=NCCN1", "-9.52% (inactive)"),
    ("CN(C)c1nc(N(C)C)nc(N(C)C)n1", "-14% (inactive)"),
    ("COc1cc2nc(N(C)CCCNC(=O)C3CCCO3)nc(N)c2cc1OC (stereo unspecified)", "-6.29% (inactive)"),
]

* * *

- experimentalProtocol: Quantitative High-Throughput drug screen in 47 multiple myeloma cell lines against the NCATS MIPE library collection: MMM1_PLB cell viability assay (AID 1918976); also: potency is read from the fitted curve at half-maximal effect; nearly all actives have a fitted effect of over 35% in size
- testConditions: MMM1 myeloma cells viability, CellTiter-Glo, 48 h; series mostly up to 45.8 µM
Records with an inconclusive call do not appear. The source made the active and inactive calls. Calls follow the shape of the dose curve; as a rule, active = well fitted cell-killing curve with a large enough effect; inconclusive = small, poorly fitted or top-dose-only effect, or effect the other way; inactive = no such curve, though single readings can be large or run the other way.
Potency by entry:

# molecule, Potency
data = [
    ("O=C1c2c(O)ccc(O)c2C(=O)c2c(NCCNCCO)ccc(NCCNCCO)c21", "1.48 µM (active)"),
    ("C[C@@H]1CC(=O)NN=C1c1ccc(NN=C(C#N)C#N)cc1", "18.7 µM (active)"),
    ("CN(C)CCC=C1c2ccccc2C=Cc2ccccc21", "4.18 µM (active)"),
    ("Clc1ccc(C(c2ccccc2Cl)C(Cl)Cl)cc1 (stereo not drawn)", "20.9 µM (active)"),
    ("CCOC(=O)C(C)(C)Oc1ccc(Cl)cc1", "7.43 µM (active)"),
    ("N[C@@H](Cc1c[nH]c2ccc(O)cc12)C(=O)O", "18.7 µM (active)"),
    ("NC(=O)NO", "2.09 µM (active)"),
    ("NCCc1cnc[nH]1", "0.0132 µM (active)"),
    ("CC(C(=O)O)c1cccc(C(=O)c2ccccc2)c1 (stereo not drawn)", "0.833 µM (active)"),
    ("O=C1Cc2cc(CCN3CCN(c4nsc5ccccc45)CC3)c(Cl)cc2N1", "23.5 µM (active)"),
    ("CNCCCC12CCC(c3ccccc31)c1ccccc12", "20.9 µM (active)"),
    ("Fc1ccc([C@@H]2CCNC[C@H]2COc2ccc3c(c2)OCO3)cc1", "14.8 µM (active)"),
    ("Nc1nc2c(ncn2COC(CO)CO)c(=O)[nH]1", "23.5 µM (active)"),
]

* * *

- experimentalProtocol: qHTS profiling of the MIPE4 collection as inhibitors of Plasmodium falciparum (DD2) proliferation (AID 743345)
- testConditions: P. falciparum Dd2 in erythrocytes, SYBR Green DNA, 72 h; at 28.5 µM (top of the series) unless noted
measuredMetric: parasite growth remaining, % of DMSO control (lower = more inhibition)

# molecule, observedMeasurement
rows = [
    ("CC(C)NCC(O)COc1ccc(CCOCC2CC2)cc1 (configuration not stated)", "89.8%"),
    ("C[C@H]1c2cccc(O)c2C(O)=C2C(=O)[C@]3(O)C(O)=C(C(N)=O)C(=O)[C@@H](N(C)C)[C@@H]3[C@@H](O)[C@@H]21", "28.6%"),
    ("CC(C)(Oc1ccc(C2CC2(Cl)Cl)cc1)C(=O)O (configuration not stated)", "105% [at 57.5 µM]"),
    ("NS(=O)(=O)c1cc2c(cc1Cl)NCNS2(=O)=O", "53.5%"),
    ("Cc1cn([C@H]2C=C[C@@H](CO)O2)c(=O)[nH]c1=O", "112% [at 57.5 µM]"),
    ("Nc1nc2c(ncn2COC(CO)CO)c(=O)[nH]1", "92.5%"),
    ("CC#C[C@]1(O)CC[C@H]2[C@@H]3CCC4=CC(=O)CCC4=C3[C@@H](c3ccc(N(C)C)cc3)C[C@@]21C", "45.8%"),
    ("Cc1cn([C@H]2C[C@H](N=[N+]=[N-])[C@@H](CO)O2)c(=O)[nH]c1=O", "109%"),
    ("Clc1ccc2nsnc2c1NC1=NCCN1", "98.6%"),
    ("O=c1c(-c2ccc(O)cc2)coc2cc(O)cc(O)c12", "88.4%"),
    ("COc1nc(C)nc(Cl)c1NC1=NCCN1", "89.9%"),
    ("COc1ccccc1OCC(O)CN1CCN(CC(=O)Nc2c(C)cccc2C)CC1 (configuration not stated)", "97.5%"),
    ("Cc1ccc(-c2cc(C(F)(F)F)nn2-c2ccc(S(N)(=O)=O)cc2)cc1", "64.9%"),
    ("Cc1cc(C(C)(C)C)c(O)c(C)c1CC1=NCCN1", "95.8%"),
    ("CCOC(=O)C(C)(C)Oc1ccc(Cl)cc1", "103%"),
    ("O=C(c1ccc(F)cc1)C1CCN(CCn2c(=O)[nH]c3ccccc3c2=O)CC1", "19.2%"),
    ("COc1ccccc1OCCNCC(O)COc1cccc2[nH]c3ccccc3c12 (configuration not stated)", "17.9%"),
    ("O=C1N(c2ccccc2)c2ccccc2C1(Cc1ccncc1)Cc1ccncc1", "86.2%"),
    ("CC(CCc1ccc(O)cc1)NCCc1ccc(O)c(O)c1 (configuration not stated)", "64.4%"),
    ("CS(=O)(=O)Nc1ccc([N+](=O)[O-])cc1Oc1ccccc1", "94.3%"),
    ("O=C(c1ccc(OCCN2CCCCC2)cc1)c1c(-c2ccc(O)cc2)sc2cc(O)ccc12", "32.9%"),
    ("COc1cc2nc(N(C)CCCNC(=O)C3CCCO3)nc(N)c2cc1OC (configuration not stated)", "88.3%"),
]

* * *

- experimentalProtocol: Cell Proliferation Assay against the TMD8 Cell Line (AID 651645);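 also: cells exposed to compound for 48 h before reading; 100% = DMSO and 0% = 9.2 µM bortezomib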
- testConditions: TMD8 DLBCL cell line proliferation/viability; at 46.1 µM (top of the series) unless noted
viability (% of control) by entry:

# smilesNotation, viability (% of control), %
measured = [
    ("Cn1ccc2cc3c(cc21)CCN3C(=O)Nc1cccnc1", 102),
    ("CS(=O)(=O)CCNCc1ccc(-c2ccc3ncnc(Nc4ccc(OCc5cccc(F)c5)c(Cl)c4)c3c2)o1", 0.834),
    ("CN(C)C(=N)N=C(N)N", 131),
]

* * *

- experimentalProtocol: Quantitative High-Throughput drug screen in 47 multiple myeloma cell lines against the NCATS MIPE library collection: KMS28BM_JCRB cell viability assay (AID 1919874); also: nearly all actives have a fitted effect of over 35% in size
- testConditions: CellTiter-Glo ATP, 48 h; series mostly up to 45.8 µM
Results filed as inconclusive are left out. Active and inactive are the calls of the source. The call rests on the fitted dose curve; in most records, active means well fitted cell-killing curve with a large enough effect; inconclusive means small, poorly fitted or top-dose-only effect, or effect the other way; inactive means no such curve, though single readings can be large or run the other way.
Classes used: 1 (yes) = active, 0 (no) = inactive

# compound, classAssignment
measured = [
    ("NC(CO)C(=O)NNCc1ccc(O)c(O)c1O (configuration not stated)", "1 (yes)"),
    ("Nc1nc2c(ncn2COC(CO)CO)c(=O)[nH]1", "1 (yes)"),
    ("O=C1Cc2cc(CCN3CCN(c4nsc5ccccc45)CC3)c(Cl)cc2N1", "1 (yes)"),
    ("Clc1ccc2nsnc2c1NC1=NCCN1", "0 (no)"),
    ("Cc1ccccc1N1C(=O)c2cc(S(N)(=O)=O)c(Cl)cc2NC1C (configuration not stated)", "0 (no)"),
    ("CC(C)C(=O)Nc1ccc([N+](=O)[O-])c(C(F)(F)F)c1", "0 (no)"),
    ("CC(C)(Oc1ccc(C2CC2(Cl)Cl)cc1)C(=O)O (configuration not stated)", "0 (no)"),
    ("CCCCc1oc2ccccc2c1C(=O)c1cc(I)c(OCCN(CC)CC)c(I)c1", "1 (yes)"),
    ("CC#C[C@]1(O)CC[C@H]2[C@@H]3CCC4=CC(=O)CCC4=C3[C@@H](c3ccc(N(C)C)cc3)C[C@@]21C", "1 (yes)"),
    ("NCCc1cnc[nH]1", "0 (no)"),
    ("CN(C)CCC=C1c2ccccc2C=Cc2ccccc21", "1 (yes)"),
    ("O=C(c1ccc(OCCN2CCCCC2)cc1)c1c(-c2ccc(O)cc2)sc2cc(O)ccc12", "1 (yes)"),
    ("COc1ccccc1N1CCN(CC(O)COc2cccc3ccccc23)CC1 (configuration not stated)", "1 (yes)"),
    ("CN(C)c1nc(N(C)C)nc(N(C)C)n1", "0 (no)"),
    ("CC(CCc1ccc(O)cc1)NCCc1ccc(O)c(O)c1 (configuration not stated)", "1 (yes)"),
    ("C[C@](N)(Cc1ccc(O)c(O)c1)C(=O)O", "0 (no)"),
    ("CCOC(=O)c1ncn2c1CN(C)C(=O)c1cc(F)ccc1-2", "0 (no)"),
    ("O=C(C1CCCCC1)N1CC(=O)N2CCc3ccccc3C2C1 (configuration not stated)", "0 (no)"),
    ("Cc1cn([C@H]2C[C@H](N=[N+]=[N-])[C@@H](CO)O2)c(=O)[nH]c1=O", "0 (no)"),
    ("CC(C(=O)O)c1cccc(C(=O)c2ccccc2)c1 (configuration not stated)", "0 (no)"),
    ("CN1C2CCC1CC(OC(=O)C(CO)c1ccccc1)C2 (configuration not stated)", "0 (no)"),
    ("OCCN(CCO)c1nc(N2CCCCC2)c2nc(N(CCO)CCO)nc(N3CCCCC3)c2n1", "1 (yes)"),
    ("Nc1c2c(nc3ccccc13)CCCC2", "1 (yes)"),
    ("COc1nc(C)nc(Cl)c1NC1=NCCN1", "0 (no)"),
    ("OCCN1CCN(CCCN2c3ccccc3Sc3ccc(C(F)(F)F)cc32)CC1", "1 (yes)"),
    ("CCc1cccc2c3c([nH]c12)C(CC)(CC(=O)O)OCC3 (configuration not stated)", "0 (no)"),
    ("CN(C)C(=O)C(CCN1CCC(O)(c2ccc(Cl)cc2)CC1)(c1ccccc1)c1ccccc1", "1 (yes)"),
    ("CNCCCC12CCC(c3ccccc31)c1ccccc12", "1 (yes)"),
    ("NC(=O)NO", "1 (yes)"),
    ("CCC1(c2ccccc2)C(=O)NCNC1=O", "0 (no)"),
    ("CC1COc2c(N3CCN(C)CC3)c(F)cc3c(=O)c(C(=O)O)cn1c23 (configuration not stated)", "0 (no)"),
    ("CS(=O)(=O)Nc1ccc([N+](=O)[O-])cc1Oc1ccccc1", "0 (no)"),
]
